Exercise: for every item that follows, state its recorded pIC50.
Target: MDM2-p53 interaction (Homo sapiens, UniProt Q00987)
Construct: In vitro-translated MDM2 (7–300 amino acids) mixed with the synthetic peptides; made in house; host or cells: MDM2: in vitro translated (wheat germ cell-free system for the bait preparation); p53: E. coli BL21 (DE3) codon+
Assay: ELISA of MDM2 (7-300) bound to immobilized His6-p53 in the presence of synthetic peptides
Type: binding
pIC50: −log10 of the molar value. Ends that are not written are not given here.

Lab note: measured pIC50 of PRFWEYALRLME [MIP (W7A)] was < 4.00

Lab note: measured pIC50 of PRFWEAWLRLME [MIP (Y6A)] was < 4.00

Lab note: measured pIC50 of LTAEHYAAQATS [3A, reference compound] was < 4.00
